Entries and their GI50
system: NCI-H1048 cells; assay: MTT proliferation assay, NCI-H1048; assay type: cell-based; settings: 5 days compound exposure, 1:3 serial dilution starting at 10 μM;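 further: Dose-response in 96-well plates over 8 or 10 concentration points, with exposure spanning 3-4 cell doublings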
*1 amine or outer side, *2 acyl side, *3 side chain or, on linkers, in order; H or OH if unused. Where a SMILES comes first, the peptide text is derived from it. Bridges are numbered along the chain shown (N, C = ends). [ ]: non-standard residue; d: D form. The star is where a group is joined. X24 = CN([C@@H](Cc1cc(Cl)ccc1-c1cnn(C(C)(C)C)c1)C(=O)[*:2])[*:1]; X158 = CCOc1ccc(-c2ccc(Cl)cc2C[C@@H](C(=O)[*:2])N(C)[*:1])cn1; NMehhhLys(Me) = CN([C@@H](CCCCCCCN(C)[*:3])C(=O)[*:2])[*:1]; X204 = CN([C@@H](Cc1cc(F)ccc1-c1ccnnc1)C(=O)[*:2])[*:1]; cBuCO(3,3-F2-1-CF3) = O=C(C1(C(F)(F)F)CC(F)(F)C1)*; Pro(trans-4-F) = O=C(O)[C@@H]1C[C@@H](F)CN1; Gly(cPr) = N[C@H](C(=O)O)C1CC1

# Molecule, GI50
records = [
    ("CCOc1ccc(-c2ccc(Cl)cc2C[C@H]2C(=O)N(C)CCCCCCC[C@H](N(C)C(=O)[C@@H](NC(=O)[C@@H]3C[C@@H](F)CN3C(=O)C3(C(F)(F)F)CC(F)(F)C3)C3CC3)C(=O)N[C@@H](CC(C)C)C(=O)N2C)cn1 [Example 182] ({cBuCO(3,3-F2-1-CF3)}-[Pro(trans-4-F)][Gly(cPr)][NMehhhLys(Me)]L[X158]; lactam 3-C)", "60 nM"),
    ("CC(C)C[C@@H]1NC(=O)[C@@H](N(C)C(=O)[C@@H](NC(=O)[C@@H]2C[C@@H](F)CN2C(=O)C2(C(F)(F)F)CC(F)(F)C2)C2CC2)CCCCCCCN(C)C(=O)[C@H](Cc2cc(Cl)ccc2-c2cnn(C(C)(C)C)c2)N(C)C1=O [Example 187] ({cBuCO(3,3-F2-1-CF3)}-[Pro(trans-4-F)][Gly(cPr)][NMehhhLys(Me)]L[X24]; lactam 3-C)", "10 nM"),
    ("CC(C)C[C@@H]1NC(=O)[C@@H](N(C)C(=O)[C@@H](NC(=O)[C@@H]2C[C@@H](F)CN2C(=O)C2(C(F)(F)F)CC(F)(F)C2)C2CC2)CCCCCCCN(C)C(=O)[C@H](Cc2cc(F)ccc2-c2ccnnc2)N(C)C1=O [Example 279] ({cBuCO(3,3-F2-1-CF3)}-[Pro(trans-4-F)][Gly(cPr)][NMehhhLys(Me)]L[X204]; lactam 3-C)", "80 nM"),
]

###

biological target: CyclinE1/CDK2 (Homo sapiens); construct: purchased Eurofins, discovery 14-475; experiment: Fluorescence Polarization (FP) competitive binding assay, Cyclin E1/Cdk2; conditions: 10 nM Cyclin E1/Cdk2, 2 nM FAM probe; average of 2-3 independent experiments; read-out: Cyclin E FP IC50;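 further: readings taken after two-hour equilibration at room temperature in HEPES buffer with NaCl, DTT, NP-40 and BSA, IC50 fitted from eight-concentration serial dilution series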
pIC50: −log10 of the molar value. *1 amine or outer side, *2 acyl side, *3 side chain or, on linkers, in order; H or OH if unused. Where a SMILES comes first, the peptide text is derived from it. Bridges are numbered along the chain shown (N, C = ends). [ ]: non-standard residue; d: D form. The star is where a group is joined. X87 = CN([C@@H](Cc1cc(F)ccc1-c1ccc(N2CCOCC2)cc1)C(=O)[*:2])[*:1]; NMehhhLys(Me) = CN([C@@H](CCCCCCCN(C)[*:3])C(=O)[*:2])[*:1]; NMe3Pal(2-OcPr,5-F) = CN[C@@H](Cc1cc(F)cnc1OC1CC1)C(=O)O; X64 = CN([C@@H](Cc1cc(Cl)ccc1OC1(C)CC1)C(=O)[*:2])[*:1]; NMe(hhhLys) = CN([C@@H](CCCCCCCN[*:3])C(=O)[*:2])[*:1]; Oxane2carbonyl(2R-CF3) = O=C([C@@]1(C(F)(F)F)CCCCO1)*; X28 = CN([C@@H](Cc1cc(Cl)cnc1OC1CCC1)C(=O)[*:2])[*:1]; Cyclobutanecarbonyl(1-CF3) = O=C(C1(C(F)(F)F)CCC1)*; cBuCO(3,3-F2-1-CF3) = O=C(C1(C(F)(F)F)CC(F)(F)C1)*; Pro(trans-4-F) = O=C(O)[C@@H]1C[C@@H](F)CN1; Gly(cPr) = N[C@H](C(=O)O)C1CC1

# Compound, pIC50
data = [
    ("CC(C)C[C@@H]1NC(=O)[C@@H](N(C)C(=O)[C@@H](NC(=O)[C@@H]2C[C@@H](F)CN2C(=O)C2(C(F)(F)F)CC(F)(F)C2)C2CC2)CCCCCCCNC(=O)[C@H](Cc2cc(F)ccc2-c2ccc(N3CCOCC3)cc2)N(C)C1=O [Example 334] ({cBuCO(3,3-F2-1-CF3)}-[Pro(trans-4-F)][Gly(cPr)][NMe(hhhLys)]L[X87]; lactam 3-C)", 6.72),
    ("COCCn1cc(-c2ccc(Cl)cc2C[C@H]2C(=O)N(C)CCCCC=CC[C@H](N(C)C(=O)[C@@H](NC(=O)[C@@H]3C[C@@H](F)CN3C(=O)C3(C(F)(F)F)CC(F)(F)C3)C3CC3)C(=O)N[C@@H](CC(C)C)C(=O)N2C)cn1", 6.57),
    ("CC(C)C[C@@H]1NC(=O)[C@@H](N(C)C(=O)[C@@H](NC(=O)[C@@H]2C[C@@H](F)CN2C(=O)[C@@]2(C(F)(F)F)CCCCO2)C2CC2)CCCCCCCN(C)C(=O)[C@H](Cc2cc(Cl)ccc2OC2(C)CC2)N(C)C1=O [Example 260] ({Oxane2carbonyl(2R-CF3)}-[Pro(trans-4-F)][Gly(cPr)][NMehhhLys(Me)]L[X64]; lactam 3-C)", 7.00),
    ("CC(C)C[C@@H]1NC(=O)[C@@H](N(C)C(=O)[C@@H](NC(=O)[C@@H]2C[C@@H](F)CN2C(=O)C2(C(F)(F)F)CC(F)(F)C2)C2CC2)CCCCCCCN(C)C(=O)[C@H](Cc2cc(Cl)cnc2OC2CCC2)N(C)C1=O [Example 140] ({cBuCO(3,3-F2-1-CF3)}-[Pro(trans-4-F)][Gly(cPr)][NMehhhLys(Me)]L[X28]; lactam 3-C)", 6.92),
    ("CC(C)C[C@@H]1NC(=O)[C@@H](N(C)C(=O)[C@@H](NC(=O)[C@@H]2C[C@@H](F)CN2C(=O)C2(C(F)(F)F)CCC2)C2CC2)CCCCCCCN(C)C(=O)[C@H](Cc2cc(F)cnc2OC2CC2)N(C)C1=O [Example 135] ({Cyclobutanecarbonyl(1-CF3)}-[Pro(trans-4-F)][Gly(cPr)][NMehhhLys(Me)]L[NMe3Pal(2-OcPr,5-F)]; lactam 3-C)", 6.92),
    ("CC(C)C[C@@H]1NC(=O)[C@@H](N(C)C(=O)[C@@H](NC(=O)[C@@H]2C[C@@H](F)CN2C(=O)C2(C(F)(F)F)CCC2)C2CC2)CC=CCCCCN(C)C(=O)[C@H](Cc2cc(F)ccc2-c2cnn(CC(F)F)c2)N(C)C1=O", 7.00),
]

Data credit: patent US20240408169A1
